System: DU-145
METHOD_DESCRIPTION: Cytotoxicity against human DU145 cells after 72 hrs by MTS assay
Assay type: functional, cell-based
APPLIED_CONDITIONS: DU-145, 72 h
ASSAY_ENDPOINT: IC50

API: value(readout=IC50, system=DU-145) for record `CC(=O)N[C@H]1[C@H](OC[C@]23CC[C@H](O)C=C2CC[C@@H]2[C@@H]3CC[C@]3(C)[C@@H]([C@H](C)CCCC(C)C)CC[C@@H]23)O[C@H](CO)[C@@H](O)[C@@H]1O`
> 25 µM

API: value(readout=IC50, system=DU-145) for record `CC(C)CCC[C@@H](C)[C@H]1CC[C@H]2[C@@H]3CCC4=CC(=O)CC[C@]4(CO)[C@H]3CC[C@]12C`
5.05 µM

API: value(readout=IC50, system=DU-145) for record `CC(=O)N[C@H]1[C@H](OC[C@]23CCC(=O)C=C2CC[C@@H]2[C@@H]3CC[C@]3(C)[C@@H]([C@H](C)CCCC(C)C)CC[C@@H]23)O[C@H](CO)[C@@H](O)[C@@H]1O`
1.35 µM

API: value(readout=IC50, system=DU-145) for record `CC(C)CCC[C@@H](C)[C@H]1CC[C@H]2[C@@H]3CCC4=CC(=O)CC[C@]4(C)[C@H]3CC[C@]12C`
20.3 µM

API: value(readout=IC50, system=DU-145) for record `CC(C)CCC[C@@H](C)[C@H]1CC[C@H]2[C@@H]3CCC4=C[C@@H](O)CC[C@]4(C)[C@H]3CC[C@]12C`
> 25 µM

API: value(readout=IC50, system=DU-145) for record `CC(C)CCC[C@@H](C)[C@H]1CC[C@H]2[C@@H]3CCC4=CC(=O)CC[C@]4(CO[C@@H]4O[C@H](CO)[C@@H](O)[C@H](O)[C@H]4O)[C@H]3CC[C@]12C`
1.31 µM

API: value(readout=IC50, system=DU-145) for record `CC(C)CCC[C@@H](C)[C@H]1CC[C@H]2[C@@H]3CCC4=C[C@@H](O)CC[C@]4(CO[C@@H]4O[C@H](CO)[C@@H](O)[C@H](O)[C@H]4O)[C@H]3CC[C@]12C`
> 25 µM
